assay: Solubility of indirubin derivative in oils and surfactants (LC/MS/MS); assay type: physicochemical; conditions: organic solvent or mixture, thermodynamic from solid; in Propylene glycol; 72 hours at 37° C.
OBSERVATION_TYPE: solubility at 72 h (µg/mL)

> print(dat)
                                   compound  quantitative.result
1  CO/N=C1/C(=C2/C(=O)Nc3cc(Cl)c(Cl)cc32)Nc2ccccc21 [Embodiment A3051, 5,6-dichloroindirubin-3′-methoxime]                  250

* * *

assay: Solubility of indirubin derivative in oils and surfactants (LC/MS/MS); format: physicochemical; details: aqueous with cosolvent or surfactant or cyclodextrin, thermodynamic from solid; in Tween 20; 72 hours at 37° C.
OBSERVATION_TYPE: solubility at 72 h (µg/mL)

> print(dat)
                         compound.structure    observation.type  quantitative.result
1  CO/N=C1/C(=C2/C(=O)Nc3cc(Cl)c(Cl)cc32)Nc2ccccc21  solubility at 72 h                 4580
